- system: AGO2 T357M (Homo sapiens, UniProt Q9UKV8 1-859, T357M;S387D;S824A;S828D;S831D;S834A)
- Sequence (Q9UKV8 whole entry T357M/S387D/S824A/S828D/S831D/S834A): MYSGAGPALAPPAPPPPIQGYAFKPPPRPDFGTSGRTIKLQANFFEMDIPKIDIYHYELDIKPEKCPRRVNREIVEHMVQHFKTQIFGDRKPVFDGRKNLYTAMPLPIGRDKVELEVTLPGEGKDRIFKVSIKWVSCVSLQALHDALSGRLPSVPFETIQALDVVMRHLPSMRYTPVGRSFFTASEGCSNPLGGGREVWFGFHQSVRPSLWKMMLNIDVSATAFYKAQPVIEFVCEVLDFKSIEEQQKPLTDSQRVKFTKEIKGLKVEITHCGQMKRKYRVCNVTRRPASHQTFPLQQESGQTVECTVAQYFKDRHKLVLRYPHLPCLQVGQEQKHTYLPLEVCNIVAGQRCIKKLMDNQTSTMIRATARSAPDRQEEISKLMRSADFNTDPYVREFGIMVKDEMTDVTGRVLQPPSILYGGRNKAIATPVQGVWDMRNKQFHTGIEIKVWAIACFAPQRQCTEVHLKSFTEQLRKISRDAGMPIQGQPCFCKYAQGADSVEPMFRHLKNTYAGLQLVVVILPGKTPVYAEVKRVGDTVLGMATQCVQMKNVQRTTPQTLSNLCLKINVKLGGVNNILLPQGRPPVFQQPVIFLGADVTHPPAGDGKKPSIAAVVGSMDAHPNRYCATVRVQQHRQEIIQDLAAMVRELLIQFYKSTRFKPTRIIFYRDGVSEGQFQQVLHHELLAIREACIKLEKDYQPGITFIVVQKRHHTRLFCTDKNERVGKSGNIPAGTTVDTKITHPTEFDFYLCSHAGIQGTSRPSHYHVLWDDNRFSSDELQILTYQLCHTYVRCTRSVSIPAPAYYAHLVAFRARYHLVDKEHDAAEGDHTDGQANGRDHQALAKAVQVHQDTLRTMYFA
- test-protocol: RNA Bind-n-Seq (nitrocellulose filter binding and sequencing); miR-122 guide loaded in AGO2; 60 min incubation; 30 mM Tris pH 8.0, 100 mM potassium acetate, 2 mM magnesium acetate, 0.5 mM TCEP, 0.005% NP-40, 0.01 mg/ml yeast tRNA; 3 nM AGO2-miR-122, 100 nM RNA library; 60; high values mean tight binding
- run-parameters: protein: recombinant; tags: His6 (N-terminal, pFastBac HTA)
# binding signal per record follows

* ATACCTTA (ssRNA, constant regions annealed to DNA blockers; guide miR-122 5' phosphate) RNA 1: GAGUUCUACAGUCCGACGAUCCCAACAUACCUUACACCUGGAAUUCUCGGGUGCCAA RNA 2: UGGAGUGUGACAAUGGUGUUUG DNA 1: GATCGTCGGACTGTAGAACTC DNA 2: TTGGCACCCGAGAATTCCA | 0.561 fold enrichment over input

Attention now shifts to the item below.
query: Need binding signal, item ACGTCCCG (ssRNA, constant regions annealed to DNA blockers; guide miR-122 5' phosphate) RNA 1: GAGUUCUACAGUCCGACGAUCCCAACACGUCCCGCACCUGGAAUUCUCGGGUGCCAA RNA 2: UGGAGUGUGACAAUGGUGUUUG DNA 1: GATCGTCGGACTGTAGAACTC DNA 2: TTGGCACCCGAGAATTCCA
result: 0.443 fold enrichment over input
